- ASSAYED_SYSTEM: Lipoprotein lipase (Homo sapiens) (UniProt P06858)
- Sequence (P06858 whole entry): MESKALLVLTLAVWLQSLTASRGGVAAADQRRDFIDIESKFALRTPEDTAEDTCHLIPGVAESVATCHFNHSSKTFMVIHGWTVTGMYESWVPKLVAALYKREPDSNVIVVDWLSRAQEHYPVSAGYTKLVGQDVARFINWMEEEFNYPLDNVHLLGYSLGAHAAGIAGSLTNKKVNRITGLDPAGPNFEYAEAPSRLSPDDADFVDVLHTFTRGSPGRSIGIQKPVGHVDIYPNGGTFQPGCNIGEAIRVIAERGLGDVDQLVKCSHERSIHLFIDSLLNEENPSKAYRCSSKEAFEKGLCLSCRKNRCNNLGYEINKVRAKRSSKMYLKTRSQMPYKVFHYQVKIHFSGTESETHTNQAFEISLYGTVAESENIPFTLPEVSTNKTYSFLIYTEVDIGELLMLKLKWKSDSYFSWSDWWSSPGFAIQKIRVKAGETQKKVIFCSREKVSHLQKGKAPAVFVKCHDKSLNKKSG
- EXPERIMENTAL_DETAILS: Agonist activity at lipoprotein lipase (unknown origin) using p-nitrophenylbutyrate as substrate by spectrophotometric analysis relative to control
- Parameters: concentration or dose not given beside the values
Activity values by entry
Answer with a number only, understood to be in %.

Before answering, review these 3 worked examples.
MOLECULE: CC1(C(=O)NCCCN2CCOCC2)CC1(Br)Br (stereo unspecified)
MEASUREMENT_LABEL: Activity
DISPLAY_UNIT: %
NUMERIC_READOUT: 130
--
MOLECULE: CCOP(=O)(Cc1ccc(C(=O)Nc2ccc(Br)cc2C#N)cc1)OCC
MEASUREMENT_LABEL: Activity
DISPLAY_UNIT: %
NUMERIC_READOUT: 170
--
MOLECULE: CC1(C(=O)NCCCn2ccnc2)CC1(Cl)Cl (stereo unspecified)
MEASUREMENT_LABEL: Activity
DISPLAY_UNIT: %
NUMERIC_READOUT: 196

In: Quick check: Activity of CC1(C)CC1(C(=O)NCCCn1ccnc1)c1ccc(F)cc1 (stereo unspecified) ?
Out: 342

In: Quick check: Activity of CC1(C(=O)NCCCn2cnc(Cl)c2)CC1(Br)Br (stereo unspecified) ?
Out: 122

In: Quick check: Activity of Cc1cn(CCCNC(=O)C2(C)CC2(Br)Br)cn1 (stereo unspecified) ?
Out: 113
